Biological target: hGIPR (Homo sapiens, UniProt P48546)
Construct: expressed in transfected cells; host or cells: CHO cells carrying a CRE-luciferase reporter gene
Sequence (P48546 22-466): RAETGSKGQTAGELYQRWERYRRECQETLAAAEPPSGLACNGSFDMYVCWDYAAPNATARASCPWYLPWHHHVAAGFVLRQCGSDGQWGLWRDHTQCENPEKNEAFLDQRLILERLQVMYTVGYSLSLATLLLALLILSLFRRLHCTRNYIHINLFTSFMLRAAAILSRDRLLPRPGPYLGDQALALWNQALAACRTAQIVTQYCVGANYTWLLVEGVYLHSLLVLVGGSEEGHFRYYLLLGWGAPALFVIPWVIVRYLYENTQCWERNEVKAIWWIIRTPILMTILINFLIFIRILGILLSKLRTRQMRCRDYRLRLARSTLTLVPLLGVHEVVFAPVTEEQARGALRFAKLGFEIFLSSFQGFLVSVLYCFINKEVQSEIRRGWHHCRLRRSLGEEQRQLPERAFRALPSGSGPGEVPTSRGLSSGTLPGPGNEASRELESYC
Experiment: hGIPR CreLuc reporter gene assay in 0.5% and 100% plasma
Assay type: cell-based
Settings: CreLuc reporter gene assay, 0.5% human plasma; read-out: hGIPR 0.5% hP
Starred links: 1 amine or outer side, 2 acyl side, 3 side chain; linkers in the order of their positions; H or OH if unused. Non-standard residues stand in square brackets, D forms with d. Groups on a side chain read outwards from the residue. No end group written: not given here. *: point of attachment. C20 diacid = O=C(O)CCCCCCCCCCCCCCCCCCC(=O)*; C18 diacid = O=C(O)CCCCCCCCCCCCCCCCC(=O)*; γGlu = O=C(O)[C@H](CCC(=O)[*:2])N[*:1]; εLys = N[C@@H](CCCCN[*:1])C(=O)[*:2]; β3hQ = NC(=O)CC[C@H](N)CC(=O)O; AEEA = NCCOCCOCC(=O)O; Aib = CC(C)(N)C(=O)O
Property: log10(EC50); scope: individual substances
READOUT_KIND: log10(EC50) (log10 of the value in pM)

SUBSTANCE	EXPERIMENTAL_RESULT
H-Y[Aib]EGTFTSDYSI[Aib]LEKQAQ[Aib]AFVEWLIK([εLys-γGlu-γGlu-γGlu-γGlu-γGlu-γGlu-C20 diacid])GGPSSGASLRHYYNWLTR[β3hQ]RY-NH2 [Compound 208]	1.85
H-Y[Aib]EGTFTSDYSI[Aib]LEKQAQ[Aib]AFVEWLIK([γGlu-γGlu-γGlu-γGlu-C18 diacid])GGPSEGASLRHYYNWLTRQRY-NH2 [Compound 294]	2.32
H-Y[Aib]EGTFTSDYSI[Aib]LEKQAQ[Aib]AFVQWLIK([εLys-γGlu-γGlu-γGlu-γGlu-γGlu-γGlu-C20 diacid])GGPESGASLRHYYNWLTRQRY-NH2 [Compound 37]	2.38
H-Y[Aib]EGTFTSDYSI[Aib]LEKQAQ[Aib]AFVEWLIK([εLys-γGlu-γGlu-γGlu-γGlu-γGlu-γGlu-C20 diacid])GGPSSPASLRHYYNWLTRQRY-NH2 [Compound 95]	2.11
H-Y[Aib]EGTFTSDYSI[Aib]LEKQAQ[Aib]AFVEWLIK([εLys-γGlu-γGlu-γGlu-γGlu-γGlu-γGlu-C20 diacid])GGPSSGADLRHYLNWLTRQRY-NH2 [Compound 72]	2.46
H-Y[Aib]EGTFTSDYSI[Aib]LEKQAQ[Aib]AFVEWLIK([εLys-γGlu-γGlu-γGlu-γGlu-γGlu-γGlu-C20 diacid])GGPRYYASLRHYYNWLTRQRY-NH2 [Compound 62]	2.68
H-Y[Aib]EGTFTSDYSI[Aib]LEKQAQ[Aib]AFVEWLIK([εLys-γGlu-γGlu-γGlu-γGlu-γGlu-γGlu-C20 diacid])GGPSYYVSLRHYYNWLTRQRY-NH2 [Compound 80]	2.90
H-Y[Aib]EGTFTSDYSI[Aib]LEKQAQ[Aib]AFVEWLIK([AEEA-AEEA-γGlu-γGlu-γGlu-γGlu-C20 diacid])GGPEEPASLRHYYNWLTRQRY-NH2 [Compound 206]	2.40
H-Y[Aib]EGTFTSDYSI[Aib]LEKQAQ[Aib]AFVQWLIK([AEEA-AEEA-γGlu-γGlu-γGlu-γGlu-C18 diacid])GGPSEPASLRHYYNWLTRQRY-NH2 [Compound 173]	2.43
H-Y[Aib]EGTFTSDYSI[Aib]LEKQAQ[Aib]AFVEWLIK([γGlu-γGlu-γGlu-γGlu-γGlu-γGlu-C20 diacid])GGGSEYVSLRHYYNWLTRQRY-NH2 [Compound 65]	3.01
H-Y[Aib]EGTFTSDYSI[Aib]LEKQAQ[Aib]AFVEWLIK([εLys-γGlu-γGlu-γGlu-γGlu-γGlu-γGlu-C20 diacid])GGPSSGES[Aib]RHYYNWLTRQRY-NH2 [Compound 49]	1.85
Y[Aib]EGTFTSDYSI[Aib]LEKQAE[Aib]AFVEWLIK([AEEA-AEEA-γGlu-γGlu-γGlu-γGlu-C18 diacid])GGPSSGASLRHYYNWLTRQRY-NH2 [Compound 150]	2.43
H-Y[Aib]EGTFTSDYSI[Aib]LAAAAQ[Aib]AFVEWLIK([εLys-γGlu-γGlu-γGlu-γGlu-γGlu-γGlu-C20 diacid])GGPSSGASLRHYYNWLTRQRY-NH2 [Compound 20]	2.97
H-Y[Aib]EGTFTSDYSI[Aib]LEKQAQ[Aib]EFVQWLIK([γGlu-γGlu-γGlu-γGlu-γGlu-γGlu-C20 diacid])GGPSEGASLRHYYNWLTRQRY-NH2 [Compound 185]	2.52
H-Y[Aib]EGTFTSDYSI[Aib]LEKQAQ[Aib]AFVEWLIK([AEEA-AEEA-γGlu-γGlu-γGlu-γGlu-C20 diacid])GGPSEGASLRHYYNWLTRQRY-NH2 [Compound 287]	2.53
H-Y[Aib]EGTFTSDYSI[Aib]LEKQAQ[Aib]EFVQWLIK([γGlu-γGlu-γGlu-γGlu-C20 diacid])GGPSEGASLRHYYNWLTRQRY-NH2 [Compound 194]	2.30
H-Y[Aib]EGTFTSDYSI[Aib]LEKQAQ[Aib]AFVQWLIK([AEEA-AEEA-γGlu-γGlu-γGlu-γGlu-C20 diacid])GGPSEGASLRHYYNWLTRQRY-NH2 [Compound 269]	2.66
H-Y[Aib]EGTFTSDYSI[Aib]LEKQAQ[Aib]AFVQWLIK([εLys-γGlu-γGlu-γGlu-γGlu-γGlu-C18 diacid])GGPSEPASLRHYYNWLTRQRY-NH2 [Compound 148]	1.85
H-Y[Aib]EGTFTSDYSI[Aib]LEKQAQ[Aib]EFVQWLIK([AEEA-AEEA-Glu-Glu-Glu-C18 diacid])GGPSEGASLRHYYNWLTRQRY-NH2 [Compound 157]	2.58
H-Y[Aib]EGTFTSDYSI[Aib]LEKQAQ[Aib]AFVQWLIK([εLys-γGlu-γGlu-γGlu-γGlu-γGlu-γGlu-C20 diacid])GGPSSGVSLRHYYNWLTRQRY-NH2 [Compound 47]	2.40
